Tested Target: T1, RBFOX1 RRM RbFoxmut (Fox-RRM*) (Homo sapiens, UniProt Q9NWB1 109-208, R118D;E147R;N151S;E152T)
T1 sequence: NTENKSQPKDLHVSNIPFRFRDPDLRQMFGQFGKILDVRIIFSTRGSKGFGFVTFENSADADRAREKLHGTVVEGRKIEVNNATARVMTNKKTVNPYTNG
Assay Name: EMSA; HiTS-Eq, 1 nM pool, 10 min; buffer printed only for the single-RNA assays: 10 mM Tris pH 7.5, 150 mM NaCl, 3.4 mM EDTA, 0.001% NP-40, 30 C
Condition Details: tags: His6 N-terminal (pET28a); label: 5' 32P
Over roughly 16,000 sequences, “ka relative to ugcaugu” has its median near 0.096; the highest 2% begin near 0.35. The entries come from a sample that favours the highest values as a whole.
Field: binding signal. Provide a value for each of the binders that follow.

Exercise: Which binding signal value belongs to UGUAUAC (DNA:RNA) RNA: GGGAGACCGGAAUUCAGAUUGUCCUGUAUACUUAAAUCCCGUCGUAGCCACCA DNA 1: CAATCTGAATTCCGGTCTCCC DNA 2: TGGTGGCTACGACGGGATT ?
Key: 0.114 KA relative to UGCAUGU

Exercise: Request: UGUUAUC (DNA:RNA) RNA: GGGAGACCGGAAUUCAGAUUGUCCUGUUAUCUUAAAUCCCGUCGUAGCCACCA DNA 1: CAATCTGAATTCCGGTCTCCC DNA 2: TGGTGGCTACGACGGGATT
Key: 0.351 KA relative to UGCAUGU

Exercise: Request: UGUCCUG (DNA:RNA) RNA: GGGAGACCGGAAUUCAGAUUGUCCUGUCCUGUUAAAUCCCGUCGUAGCCACCA DNA 1: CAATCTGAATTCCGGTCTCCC DNA 2: TGGTGGCTACGACGGGATT
Key: 0.133 KA relative to UGCAUGU

Exercise: Request: UCCAUCA (DNA:RNA) RNA: GGGAGACCGGAAUUCAGAUUGUCCUCCAUCAUUAAAUCCCGUCGUAGCCACCA DNA 1: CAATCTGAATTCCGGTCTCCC DNA 2: TGGTGGCTACGACGGGATT
Key: 0.0673 KA relative to UGCAUGU

Exercise: Request: GGCUAUG (DNA:RNA) RNA: GGGAGACCGGAAUUCAGAUUGUCCGGCUAUGUUAAAUCCCGUCGUAGCCACCA DNA 1: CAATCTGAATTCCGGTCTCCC DNA 2: TGGTGGCTACGACGGGATT
Key: 0.405 KA relative to UGCAUGU

Exercise: Request: UGUCAUC (DNA:RNA) RNA: GGGAGACCGGAAUUCAGAUUGUCCUGUCAUCUUAAAUCCCGUCGUAGCCACCA DNA 1: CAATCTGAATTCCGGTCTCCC DNA 2: TGGTGGCTACGACGGGATT
Key: 0.183 KA relative to UGCAUGU

Exercise: Request: CGUCCUG (DNA:RNA) RNA: GGGAGACCGGAAUUCAGAUUGUCCCGUCCUGUUAAAUCCCGUCGUAGCCACCA DNA 1: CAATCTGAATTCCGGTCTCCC DNA 2: TGGTGGCTACGACGGGATT
Key: 0.132 KA relative to UGCAUGU

Exercise: Request: GGCUAUC (DNA:RNA) RNA: GGGAGACCGGAAUUCAGAUUGUCCGGCUAUCUUAAAUCCCGUCGUAGCCACCA DNA 1: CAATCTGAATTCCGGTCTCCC DNA 2: TGGTGGCTACGACGGGATT
Key: 0.226 KA relative to UGCAUGU

Exercise: Request: UAUGUCG (DNA:RNA) RNA: GGGAGACCGGAAUUCAGAUUGUCCUAUGUCGUUAAAUCCCGUCGUAGCCACCA DNA 1: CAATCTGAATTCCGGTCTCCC DNA 2: TGGTGGCTACGACGGGATT
Key: 0.133 KA relative to UGCAUGU
